Test system: EKVX NSCLC
Assay: NCI-60 one-dose screen, 48 h (100 = growth as untreated, 0 = no growth, -100 = all killed)
Conditions: 10 µM
The panel holds about 83,000 compounds, 20% with a hit somewhere; the sample as a whole holds those more often.

- compound: "CCOc1ccccc1/C=N\\N=C\\c1ccccc1O"
  system-tested: "EKVX NSCLC"
  u: "%"
  growth: 91.5
- compound: "C[C@@H](O)[C@H]1C(=O)N2C(C(=O)O)=C(SCCN=CN)C[C@H]12"
  system-tested: "EKVX NSCLC"
  u: "%"
  growth: 7.62
- compound: "Cc1noc(C)c1CSc1ccccc1C(=O)N1CCN(c2cccc(C(F)(F)F)c2)CC1"
  system-tested: "EKVX NSCLC"
  u: "%"
  growth: 66.7
- compound: "Fc1ccc2[nH]cc(-c3nc(-c4ccsc4)cs3)c2c1"
  system-tested: "EKVX NSCLC"
  u: "%"
  growth: 57.1
- compound: "CCOC(=O)c1sc2ncnc(Nc3ccc4c(cnn4C(=O)Nc4ccccc4)c3)c2c1C"
  system-tested: "EKVX NSCLC"
  u: "%"
  growth: 84.3
- compound: "COc1ccc(NC(=O)C2CC3C=CC2C3)c([N+](=O)[O-])c1 (stereo unspecified)"
  system-tested: "EKVX NSCLC"
  u: "%"
  growth: 101
- compound: "OCC1OC2C(NC(=S)N2c2ccccc2)C(O)C1O (stereo unspecified)"
  system-tested: "EKVX NSCLC"
  u: "%"
  growth: 101
- compound: "Cc1ccc(S(=O)(=O)N(C)CCCCCC(=O)O)cc1"
  system-tested: "EKVX NSCLC"
  u: "%"
  growth: 95.9
- compound: "COc1ccc(/C=C/C(=O)C(=O)/C=C/c2ccc(OC)c(OC)c2)cc1OC"
  system-tested: "EKVX NSCLC"
  u: "%"
  growth: 62.6
- compound: "CCCCC/C=C/C/C=C/CCCCCCCC1=NC(C)(C)CN1C(C)C"
  system-tested: "EKVX NSCLC"
  u: "%"
  growth: 51.9
- compound: "COc1cc(-c2nn(-c3cccc(NC(=O)CCN4CCN(Cc5ccccc5)CC4)c3)cc2-c2ccncc2)ccc1Cl"
  system-tested: "EKVX NSCLC"
  u: "%"
  growth: 48.2
- compound: "C[C@@H](O)[C@H]1C(=O)N2C(C(=O)O)=C(SC3CN[C@H](C(=O)N(C)C)C3)[C@H](C)[C@H]12 (stereo partly specified)"
  system-tested: "EKVX NSCLC"
  u: "%"
  growth: 104
- compound: "Cc1ccc(/C=C2/C(=O)N(C)c3ccc(S(=O)(=O)Nc4ccc(C(C)(C)C)cc4)cc32)s1"
  system-tested: "EKVX NSCLC"
  u: "%"
  growth: 103
- compound: "CCCCCCCCCCOC(c1ccccc1)c1ccccc1"
  system-tested: "EKVX NSCLC"
  u: "%"
  growth: 90.4
- compound: "c1ccc(CSc2ncccc2-c2nnc(SCCN3CCOCC3)o2)cc1"
  system-tested: "EKVX NSCLC"
  u: "%"
  growth: 108
- compound: "N#Cc1cnn(C(=O)c2nn(-c3ccc(Cl)cc3)cc2O)c1N"
  system-tested: "EKVX NSCLC"
  u: "%"
  growth: 1.5
- compound: "COc1ccc(-c2nn(-c3cccc(Cl)c3)cc2-c2cc(-c3ccccc3)nc(N)n2)cc1"
  system-tested: "EKVX NSCLC"
  u: "%"
  growth: 58.2
- compound: "Cc1c(Cl)cccc1NC(=O)CN1CCOCC1"
  system-tested: "EKVX NSCLC"
  u: "%"
  growth: 102
- compound: "CN1CCN(CCCn2c(=O)c3sc4ncccc4c3n3nnc(-c4ccccc4)c23)CC1"
  system-tested: "EKVX NSCLC"
  u: "%"
  growth: 2.42
- compound: "Cc1c(C(N)=O)sc2c1c(=O)n(Cc1ccccc1)c1nnc(-c3ccc(Br)cc3)n21"
  system-tested: "EKVX NSCLC"
  u: "%"
  growth: 36.7
- compound: "CN(C)c1ccc(/C=N/NC(=O)c2ccccc2Nc2cccc(C(F)(F)F)c2)cc1"
  system-tested: "EKVX NSCLC"
  u: "%"
  growth: 82.2
